# measurement_notes: growth inhibition of GSK3B-pretreated HCT116 cells – cell-based, CellTiter-Glo, 0.2 to 20 µM (AID 1117336)
# stated_conditions: HCT116 viability after GSK3B inhibitor, at 20 µM, active compounds read high
measured_quantity: viability decrease (%)

[[record]]
compound = "NCCNc1ccc(NCCN)c2c1C(=O)c1ccncc1C2=O"
measured_quantity = "viability decrease"
observed_measurement = 67.3

[[record]]
compound = "CCCCC(=O)O[C@H]1CC[C@H]2[C@@H]3CCc4cc(O)ccc4[C@@H]3CC[C@]12C"
measured_quantity = "viability decrease"
observed_measurement = 99.1

[[record]]
compound = "CC(=O)SCC(CC(=O)c1ccc(C)cc1)C(=O)O (configuration not stated)"
measured_quantity = "viability decrease"
observed_measurement = -5.5

[[record]]
compound = "CNC(=O)c1cnn(-c2nc(N)c3ncn([C@@H]4O[C@H](CO)[C@@H](O)[C@H]4O)c3n2)c1"
measured_quantity = "viability decrease"
observed_measurement = 3.8

[[record]]
compound = "COc1ccc(OC)c(C(O)CNC(=O)CN)c1 (configuration not stated)"
measured_quantity = "viability decrease"
observed_measurement = 17.9

[[record]]
compound = "CCCCCCCCCCCCOCCOCCOCCOCCOCCOCCOCCOCCOCCO"
measured_quantity = "viability decrease"
observed_measurement = 78.1

[[record]]
compound = "CCN(CC)CCCC(C)Nc1c2ccc(Cl)cc2nc2ccc(OC)cc12 (configuration not stated)"
measured_quantity = "viability decrease"
observed_measurement = 103

[[record]]
compound = "Cc1ccccc1C(=O)Nc1ccc(C(=O)N2CCCC(N(C)C)c3ccccc32)cc1 (configuration not stated)"
measured_quantity = "viability decrease"
observed_measurement = 18.9

[[record]]
compound = "CC(C)C[C@@H]1[C@H](c2ccccc2)OC(=O)N1CCCN1CCCCCC1"
measured_quantity = "viability decrease"
observed_measurement = 21.1

[[record]]
compound = "CC(C)(C)NCC(O)COc1ccc(NC(=O)NC2CCCCC2)cc1 (configuration not stated)"
measured_quantity = "viability decrease"
observed_measurement = -5.2

[[record]]
compound = "COc1cc([C@@H]2c3cc4c(cc3[C@@H](O[C@@H]3O[C@@H]5CO[C@@H](C)O[C@@H]5[C@H](O)[C@@H]3O)[C@H]3COC(=O)[C@H]23)OCO4)cc(OC)c1O"
measured_quantity = "viability decrease"
observed_measurement = 21.9

[[record]]
compound = "CN1C(C(=O)Nc2ccccn2)=C(O)c2ccccc2S1(=O)=O"
measured_quantity = "viability decrease"
observed_measurement = -12.7

[[record]]
compound = "CCN(CC)CC(=O)Oc1ccc(NC(C)=O)cc1"
measured_quantity = "viability decrease"
observed_measurement = 0.8

[[record]]
compound = "O=C(O)CCCc1ccccc1"
measured_quantity = "viability decrease"
observed_measurement = -6.2

[[record]]
compound = "c1ccc(OCc2ccc(CCCN3CCOCC3)cc2)cc1"
measured_quantity = "viability decrease"
observed_measurement = 32.1

[[record]]
compound = "C=CCOc1cc(Cl)ccc1C(=O)NCCN(CC)CC"
measured_quantity = "viability decrease"
observed_measurement = 11

[[record]]
compound = "COc1cc2nc(N3CCN(C(=O)c4ccco4)CC3)nc(N)c2cc1OC"
measured_quantity = "viability decrease"
observed_measurement = 80.9

